# assay.system: human ether-à-go-go-related gene (hERG) potassium channel (human, UniProt Q12809);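 also: peak tail current of the secondary pulse compared with the same well before compound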
# Sequence (Q12809 whole entry, looked up): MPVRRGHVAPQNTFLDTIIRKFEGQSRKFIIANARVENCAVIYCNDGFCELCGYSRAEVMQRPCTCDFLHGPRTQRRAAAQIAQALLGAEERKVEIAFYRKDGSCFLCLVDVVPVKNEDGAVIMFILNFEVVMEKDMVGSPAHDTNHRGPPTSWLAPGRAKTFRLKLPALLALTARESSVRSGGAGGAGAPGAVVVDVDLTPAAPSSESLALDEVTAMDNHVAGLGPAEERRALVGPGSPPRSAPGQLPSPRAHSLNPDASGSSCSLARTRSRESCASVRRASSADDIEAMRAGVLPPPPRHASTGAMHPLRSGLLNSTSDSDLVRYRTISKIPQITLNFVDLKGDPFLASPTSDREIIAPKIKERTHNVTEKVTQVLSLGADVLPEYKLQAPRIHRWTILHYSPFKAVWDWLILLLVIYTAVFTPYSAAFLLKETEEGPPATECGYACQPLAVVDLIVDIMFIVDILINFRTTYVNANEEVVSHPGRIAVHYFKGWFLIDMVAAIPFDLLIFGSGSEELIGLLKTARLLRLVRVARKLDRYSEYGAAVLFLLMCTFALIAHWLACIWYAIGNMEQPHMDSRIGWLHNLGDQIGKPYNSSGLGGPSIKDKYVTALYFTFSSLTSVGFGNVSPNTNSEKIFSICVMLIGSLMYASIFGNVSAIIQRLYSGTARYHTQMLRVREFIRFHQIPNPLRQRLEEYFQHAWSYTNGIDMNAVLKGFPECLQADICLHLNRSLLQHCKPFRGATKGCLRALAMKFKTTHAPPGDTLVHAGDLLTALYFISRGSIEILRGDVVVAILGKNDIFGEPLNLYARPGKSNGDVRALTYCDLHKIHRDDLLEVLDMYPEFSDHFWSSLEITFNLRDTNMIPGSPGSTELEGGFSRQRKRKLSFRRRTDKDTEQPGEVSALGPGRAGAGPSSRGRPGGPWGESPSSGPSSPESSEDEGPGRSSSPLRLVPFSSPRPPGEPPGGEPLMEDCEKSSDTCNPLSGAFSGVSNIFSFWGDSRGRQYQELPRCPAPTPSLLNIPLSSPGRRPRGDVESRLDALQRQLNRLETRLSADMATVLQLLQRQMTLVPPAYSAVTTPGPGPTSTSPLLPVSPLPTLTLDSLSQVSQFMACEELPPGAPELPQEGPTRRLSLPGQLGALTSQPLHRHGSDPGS
# procedure.text: primary screen, population patch clamp on CHO cells stably expressing hERG; higher = less effect of the substance
The whole screen tested about 310,000 compounds, of which about 14,000 (4.5%) showed an effect of 50% or more. The effect is printed as a negative number. The sample as a whole holds a higher share of strong results than the screen did.
measured.property: hERG current change (%, negative = inhibition) at 10uM (%)
Return type: number; implicit unit %.

Here is how some compounds turned out for hERG current change (%, negative = inhibition) at 10uM.
Cn1cc(CNCc2cn[nH]c2-c2ccc(F)cc2)c(-c2ccc3c(c2)OCCO3)n1; -21.6
CCOc1cccc(CN(CC)CC2CCCN(CCc3cccc(OC)c3)C2)c1O (stereo not shown); -66.7
Cl.N=c1n(CCO)c2ccccc2n1CCOc1ccc(Cl)cc1Cl; -63.8
COc1ccnc(CN(C)C(=O)C2CCC(=O)N(Cc3cccc(C(F)(F)F)c3)C2)c1 (stereo not shown); -18.6
COc1ccc(-c2nc3ccc([N+](=O)[O-])cc3[nH]2)cc1; 13.5

Next up:
Lookup: What reported hERG current change (%, negative = inhibition) at 10uM corresponds to `CC1CCN(CC(=O)c2cccc(C(F)(F)F)c2)CC1.O=C(O)C(=O)O` on human ether-à-go-go-related gene (hERG) potassium channel (human, UniProt Q12809)?
Found: 7.63

Values from paper PMC4336329
